Values from patent US7511284B2

experiment: Absorption and fluorescence maxima with and without CB7; assay type: physicochemical; parameters: unit not given here; settings: with 1 mM CB7
measurement-type: λabs max
Numbers only.

| mol | λabs max |
| --- | --- |
| CCN1C(=CC=CC2=[N+](CC)c3ccc(S(=O)(=O)[O-])cc3C2(C)C)C(C)(C)c2cc(S(=O)(=O)O)ccc21 | 558.6 |
| Cc1cc(=O)oc2c3c4c(cc12)CCCN4CCC3 | 404.6 |
| CN(C)c1ccc2c(-c3ccccc3C(=O)[O-])c3ccc(N(C)C)cc3[o+]c2c1 | 558.6 |
| CCN1C(=CC=CC=CC2=[N+](CC)c3ccc(S(=O)(=O)[O-])cc3C2(C)C)C(C)(C)c2cc(S(=O)(=O)O)ccc21 | 642.2 |

Problem: What value of measured λabs max is listed for `CCN=c1cc2oc3cc(NCC)c(C)cc3c(-c3ccccc3C(=O)OCC)c-2cc1C.Cl` ?
Result: 534.6
